Sourced from the CATMoS acute toxicity set (Mansouri et al. 2021)

assayInfo: rat acute oral toxicity
conditionContext: in vivo
Excerpt: […]The data set underlying the modeling effort for this project was initially compiled by NICEATM and U.S. EPA’s CCTE. Briefly, LD50 data were collected from rat acute oral systemic toxicity tests, including limit tests, ranges/confidence intervals, and discrete LD50 values. The full data set included 21,200 LD50 entries for 15,688 substances. […]
# key: entry, value: log10(LD50)
Please interpret these as log10 of LD50 where LD50 is in mg/kg.

Past entries and their recorded results:
[[record]]
compound = "Nc1ccc([N+](=O)[O-])cc1"
valuereported = 2.88

[[record]]
compound = "Cn1sccc1=O"
valuereported = 2.02


QUERY: What log10(LD50) value was documented for this compound, C#CCOS(=O)OC1CCCCC1Oc1ccc(C(C)(C)C)cc1 (stereo not given) ?
RESULT: 3.34

QUERY: What log10(LD50) value was documented for this compound, Cc1ccc(S(=O)(=O)O)cc1 ?
RESULT: 2.60
